# Target of assay: D(4) dopamine receptor (Homo sapiens)
# Assay details: Displacement of [3H](R)-(+)-7-OH-DPAT from human D4.4 receptor expressed in HEK293 cell membranes measured after 90 mins by scintillation counting method
Readout type: Ki (nM)
Kindly provide the numeric value in nM only, without the unit symbol.

Observe how each entry below is paired with its result.
[
  {
    "Record smiles": "Cc1cccc(NC(=O)CCN2CCN(c3ncccn3)CC2)c1",
    "Target of assay": "D(4) dopamine receptor (Homo sapiens)",
    "Readout number": 33
  },
  {
    "Record smiles": "Cc1cccc(NC(=O)CN2CCN(c3ncccn3)CC2)c1",
    "Target of assay": "D(4) dopamine receptor (Homo sapiens)",
    "Readout number": 5.66
  },
  {
    "Record smiles": "Cc1cccc(NC(=O)CN2CCN(c3ccc(Cl)cn3)CC2)c1",
    "Target of assay": "D(4) dopamine receptor (Homo sapiens)",
    "Readout number": 12.5
  },
  {
    "Record smiles": "Cc1cccc(NC(=O)CN2CCN(c3cccc4ccccc34)CC2)c1",
    "Target of assay": "D(4) dopamine receptor (Homo sapiens)",
    "Readout number": 1.65
  },
  {
    "Record smiles": "CCc1cccc(NC(=O)CN2CCN(c3ccccn3)CC2)c1",
    "Target of assay": "D(4) dopamine receptor (Homo sapiens)",
    "Readout number": 2.23
  },
  {
    "Record smiles": "Cc1cccc(NC(=O)CCN2CCN(c3ccccn3)CC2)c1",
    "Target of assay": "D(4) dopamine receptor (Homo sapiens)",
    "Readout number": 32.2
  }
]

**Query** Tell us which Ki value is on record for Cc1cccc(NC(=O)CN2CCN(c3ccccn3)CC2)c1
**Result** 1.89

**Query** Tell us which Ki value is on record for Cc1cccc(NC(=O)CN2CCC(c3ccccn3)CC2)c1
**Result** 3.95

**Query** Tell us which Ki value is on record for Cc1cccc(NC(=O)CN2CCC(c3ccccc3)CC2)c1
**Result** 1.4

**Query** Tell us which Ki value is on record for Cc1ccc(C2CCN(CC(=O)Nc3cccc(C)c3)CC2)nc1
**Result** 6.87

---

# Target of assay: D(4) dopamine receptor (Homo sapiens) (UniProt P21917)
# Sequence (whole entry): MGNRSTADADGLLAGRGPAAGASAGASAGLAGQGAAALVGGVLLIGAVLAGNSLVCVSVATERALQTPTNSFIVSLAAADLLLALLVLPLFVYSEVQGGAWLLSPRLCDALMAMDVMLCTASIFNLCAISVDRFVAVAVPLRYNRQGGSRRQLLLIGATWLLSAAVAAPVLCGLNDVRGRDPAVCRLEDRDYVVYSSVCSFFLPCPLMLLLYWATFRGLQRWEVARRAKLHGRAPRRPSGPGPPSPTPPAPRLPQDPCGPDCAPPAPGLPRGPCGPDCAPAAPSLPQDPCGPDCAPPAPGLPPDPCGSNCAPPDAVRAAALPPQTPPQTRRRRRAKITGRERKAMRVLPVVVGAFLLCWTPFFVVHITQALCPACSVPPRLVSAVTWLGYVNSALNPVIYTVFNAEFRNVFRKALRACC
# Assay details: Antagonist activity at human D4 receptor expressed in CHOK1 cells assessed as inhibition of dopamine-induced beta-arrestin recruitment measured after 90 mins by luminescence assay relative to control
# Type: cell-based
# Parameters: concentration or dose not given beside the values
Readout type: inhibition (%)
Kindly provide the numeric value in % only, without the unit symbol.

[
  {
    "Record smiles": "Cc1cccc(NC(=O)CN2CCN(c3ncccn3)CC2)c1",
    "Readout type": "inhibition",
    "Readout number": 80.6
  }
]

**Query** Tell us which inhibition value is on record for Cc1cccc(NC(=O)CN2CCN(c3ccccn3)CC2)c1
**Result** 78.9

---

# Target of assay: D(3) dopamine receptor (Homo sapiens, UniProt P35462)
# Sequence (P35462 whole entry): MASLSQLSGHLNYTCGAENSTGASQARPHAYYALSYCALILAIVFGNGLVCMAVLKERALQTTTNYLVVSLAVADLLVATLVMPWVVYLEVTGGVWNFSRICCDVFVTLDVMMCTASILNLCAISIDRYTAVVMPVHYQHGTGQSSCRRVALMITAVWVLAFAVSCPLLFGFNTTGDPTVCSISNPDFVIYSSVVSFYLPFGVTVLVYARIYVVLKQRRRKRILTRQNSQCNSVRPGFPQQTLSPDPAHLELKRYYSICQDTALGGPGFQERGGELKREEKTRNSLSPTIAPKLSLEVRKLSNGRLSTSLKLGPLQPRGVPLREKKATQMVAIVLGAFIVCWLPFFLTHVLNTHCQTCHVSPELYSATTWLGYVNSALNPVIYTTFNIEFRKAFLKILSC
# Assay details: Antagonist activity at human D3 receptor expressed in CHOK1 cells assessed as inhibition of dopamine-induced beta-arrestin recruitment measured after 90 mins by luminescence assay
# Type: cell-based
# Settings: read-out: IC50
pIC50: −log10 of the molar value.
Readout type: pIC50

Observe how each entry below is paired with its result.
[
  {
    "Record smiles": "Cc1cccc(NC(=O)CCN2CCC(c3ccccn3)CC2)c1",
    "Target of assay": "D(3) dopamine receptor (Homo sapiens, UniProt P35462)",
    "pIC50": "< 4.30"
  },
  {
    "Record smiles": "Cc1cccc(NC(=O)CN2CCN(c3ccccn3)CC2)c1",
    "Target of assay": "D(3) dopamine receptor (Homo sapiens, UniProt P35462)",
    "pIC50": "< 4.00"
  },
  {
    "Record smiles": "Cc1cccc(NC(=O)CCN2CCN(c3ncccn3)CC2)c1",
    "Target of assay": "D(3) dopamine receptor (Homo sapiens, UniProt P35462)",
    "pIC50": "< 4.30"
  },
  {
    "Record smiles": "Cc1cccc(NC(=O)CCN2CCN(c3ccccn3)CC2)c1",
    "Target of assay": "D(3) dopamine receptor (Homo sapiens, UniProt P35462)",
    "pIC50": "< 4.30"
  }
]

**Query** Tell us which pIC50 value is on record for Cc1cccc(NC(=O)CN2CCC(c3ccccc3)CC2)c1
**Result** < 4.30

**Query** Tell us which pIC50 value is on record for Cc1cccc(NC(=O)CN2CCC(c3ccccn3)CC2)c1
**Result** < 4.00

**Query** Tell us which pIC50 value is on record for Cc1cccc(NC(=O)CN2CCN(c3ncccn3)CC2)c1
**Result** < 4.00

---

# Target of assay: D(2) dopamine receptor (Homo sapiens, UniProt P14416)
# Sequence (P14416 whole entry): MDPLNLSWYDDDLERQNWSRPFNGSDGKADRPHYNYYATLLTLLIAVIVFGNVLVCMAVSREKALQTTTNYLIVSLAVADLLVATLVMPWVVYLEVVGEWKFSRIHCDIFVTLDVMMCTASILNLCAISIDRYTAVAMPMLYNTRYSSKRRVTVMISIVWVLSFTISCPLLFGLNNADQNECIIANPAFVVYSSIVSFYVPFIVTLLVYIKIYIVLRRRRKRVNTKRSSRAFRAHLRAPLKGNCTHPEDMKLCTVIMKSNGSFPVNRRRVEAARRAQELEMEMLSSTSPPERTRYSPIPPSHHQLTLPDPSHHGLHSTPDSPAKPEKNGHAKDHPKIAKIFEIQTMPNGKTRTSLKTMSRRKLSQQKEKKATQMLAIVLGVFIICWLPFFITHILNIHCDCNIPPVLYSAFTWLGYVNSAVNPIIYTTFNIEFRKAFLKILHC
# Assay details: Antagonist activity at human D2L receptor expressed in CHOK1 cells assessed as suppression of dopamine-induced inhibition of forskolin-stimulated cAMP accumulation measured after 30 mins by Eu-cAMP tracer based TR-FRET assay relative to dopamine
# Type: cell-based
# Settings: 0.5 h
Each entry below carries its reported inhibition (INH).

Observe how each entry below is paired with its result.
[
  {
    "Record smiles": "O=C(CN1CCN(c2ccccn2)CC1)Nc1cncnc1",
    "inhibition (INH)": "98.1%"
  },
  {
    "Record smiles": "O=C(CN1CCN(c2ccccn2)CC1)Nc1cccnc1",
    "inhibition (INH)": "100%"
  },
  {
    "Record smiles": "CCc1cccc(NC(=O)CN2CCC(c3ccccn3)CC2)c1",
    "inhibition (INH)": "96.6%"
  }
]

**Query** State inhibition (INH) on D(2) dopamine receptor (Homo sapiens, UniProt P14416). Entry: Cc1cccc(NC(=O)CN2CCN(c3ccc(Cl)cn3)CC2)c1
**Result** 98.3%

**Query** State inhibition (INH) on D(2) dopamine receptor (Homo sapiens, UniProt P14416). Entry: Cc1cccc(NC(=O)CN2CCC(c3ccccc3)CC2)c1
**Result** 100%

**Query** State inhibition (INH) on D(2) dopamine receptor (Homo sapiens, UniProt P14416). Entry: CCc1cccc(NC(=O)CN2CCN(c3ccccn3)CC2)c1
**Result** 88%

**Query** State inhibition (INH) on D(2) dopamine receptor (Homo sapiens, UniProt P14416). Entry: Cc1cccc(NC(=O)CN2CCC(c3ccc(Cl)cc3)CC2)c1
**Result** 97.5%

---

# Target of assay: D(2) dopamine receptor (Homo sapiens, UniProt P14416)
# Assay details: Antagonist activity at human D2L receptor expressed in CHOK1 cells assessed as inhibition of dopamine-induced beta-arrestin recruitment measured after 90 mins by luminescence assay relative to control
# Type: cell-based
Readout type: INH (%)
Kindly provide the numeric value in % only, without the unit symbol.

[
  {
    "Record smiles": "Cc1cccc(NC(=O)CN2CCN(c3cccc4ccccc34)CC2)c1",
    "Readout units": "%",
    "INH": 100
  },
  {
    "Record smiles": "Cc1cccc(NC(=O)CCN2CCN(c3ncccn3)CC2)c1",
    "Readout units": "%",
    "INH": 94.6
  },
  {
    "Record smiles": "Cc1cccc(NC(=O)CN2CCC(c3ccc(Cl)cc3)CC2)c1",
    "Readout units": "%",
    "INH": 100
  },
  {
    "Record smiles": "Cc1cccc(NC(=O)CCN2CCC(c3ccccn3)CC2)c1",
    "Readout units": "%",
    "INH": 72.1
  },
  {
    "Record smiles": "Cc1ccc(C2CCN(CC(=O)Nc3cccc(C)c3)CC2)nc1",
    "Readout units": "%",
    "INH": 100
  }
]

**Query** Tell us which INH value is on record for Cc1cccc(NC(=O)CCN2CCN(c3ccccn3)CC2)c1
**Result** 77.7

**Query** Tell us which INH value is on record for Cc1cccc(NC(=O)CN2CCC(c3ccccn3)CC2)c1
**Result** 94.8

**Query** Tell us which INH value is on record for CCc1cccc(NC(=O)CN2CCN(c3ccc(Cl)cn3)CC2)c1
**Result** 100

**Query** Tell us which INH value is on record for CCc1cccc(NC(=O)CN2CCC(c3ccccn3)CC2)c1
**Result** 100
